Documented IC50 at 48 h across a set of compounds
Measurement Description: Antiproliferative against HLF1 cells measured after 48 hrs by CCK8 assay
Type: toxicity, cell-based
Condition Parameters: human, HFL1 cells (description prints HLF1)
Test Readout: IC50 at 48 h (µM)

[
  {
    "Cpd Smiles": "CC(C)n1cc(-c2cc(C(=O)Nc3cccc(-c4nncn4C4CC4)n3)c(=O)n(Cc3ccccc3F)c2)cn1",
    "Test Readout": "IC50 at 48 h",
    "Qualifier Operator": "=",
    "Value Reported": 9.2
  },
  {
    "Cpd Smiles": "O=C(Nc1cccc(-c2nncn2C2CC2)n1)c1cc(-c2cnn(C3CC3)c2)cn(Cc2ccccc2F)c1=O",
    "Test Readout": "IC50 at 48 h",
    "Qualifier Operator": "=",
    "Value Reported": 15.2
  },
  {
    "Cpd Smiles": "Cn1nc(C(F)(F)F)c2cc(C(=O)Nc3cccc(-c4nncn4C4CC4)n3)c(=O)[nH]c21",
    "Test Readout": "IC50 at 48 h",
    "Qualifier Operator": ">",
    "Value Reported": 80
  },
  {
    "Cpd Smiles": "O=C(Nc1cccc(-c2nncn2C2CC2)n1)c1cc(-c2cnn(C(F)F)c2)cn(Cc2ccccc2F)c1=O",
    "Test Readout": "IC50 at 48 h",
    "Qualifier Operator": ">",
    "Value Reported": 80
  },
  {
    "Cpd Smiles": "Cn1nc(C(F)(F)F)c2cc(C(=O)Nc3cccc(-c4nncn4C4CC4)n3)c(OCc3ccccc3F)nc21",
    "Test Readout": "IC50 at 48 h",
    "Qualifier Operator": "=",
    "Value Reported": 62.5
  },
  {
    "Cpd Smiles": "Cn1nc(C(F)(F)F)c2cc(C(=O)Nc3cccc(-c4nncn4C4CCCC4)c3)c(=O)[nH]c21",
    "Test Readout": "IC50 at 48 h",
    "Qualifier Operator": ">",
    "Value Reported": 80
  },
  {
    "Cpd Smiles": "Cn1nc(C(F)(F)F)c2cc(C(=O)Nc3cccc(-c4nncn4C4CCCCC4)c3)c(=O)[nH]c21",
    "Test Readout": "IC50 at 48 h",
    "Qualifier Operator": ">",
    "Value Reported": 80
  },
  {
    "Cpd Smiles": "O=C(Nc1cccc(-c2nncn2C2CC2)n1)c1cc(-c2cnc(Cl)nc2)cn(Cc2ccccc2F)c1=O",
    "Test Readout": "IC50 at 48 h",
    "Qualifier Operator": "=",
    "Value Reported": 29.2
  }
]

====

Documented IC50 at 48 h across a set of compounds
Measurement Description: Antiproliferative against rat NRK-49F cells measured after 48 hrs by CCK8 assay
Type: toxicity, cell-based

[
  {
    "Cpd Smiles": "Cn1nc(C(F)(F)F)c2cc(C(=O)Nc3cccc(-c4nncn4C4CC4)n3)c(OCc3ccccc3F)nc21",
    "Qualifier Operator": "=",
    "IC50 at 48 h [µM]": 55.2
  },
  {
    "Cpd Smiles": "Cn1nc(C(F)(F)F)c2cc(C(=O)Nc3cccc(-c4nncn4C4CC4)n3)c(=O)[nH]c21",
    "Qualifier Operator": ">",
    "IC50 at 48 h [µM]": 80
  },
  {
    "Cpd Smiles": "Cn1nc(C(F)(F)F)c2cc(C(=O)Nc3cccc(-c4nncn4C4CCCCC4)c3)c(=O)[nH]c21",
    "Qualifier Operator": ">",
    "IC50 at 48 h [µM]": 80
  },
  {
    "Cpd Smiles": "CC(C)n1cc(-c2cc(C(=O)Nc3cccc(-c4nncn4C4CC4)n3)c(=O)n(Cc3ccccc3F)c2)cn1",
    "Qualifier Operator": "=",
    "IC50 at 48 h [µM]": 14.8
  },
  {
    "Cpd Smiles": "CC(C)n1cnnc1-c1cccc(NC(=O)c2cc3c(C(F)(F)F)nn(C)c3n(C)c2=O)c1",
    "Qualifier Operator": "=",
    "IC50 at 48 h [µM]": 56.1
  },
  {
    "Cpd Smiles": "O=C(Nc1cccc(-c2nncn2C2CC2)n1)c1cc(-c2cccc3[nH]ccc23)cn(Cc2ccccc2F)c1=O",
    "Qualifier Operator": "=",
    "IC50 at 48 h [µM]": 47
  },
  {
    "Cpd Smiles": "O=C(Nc1cccc(-c2nncn2C2CC2)n1)c1cc(-c2ccc3[nH]ccc3c2)cn(Cc2ccccc2F)c1=O",
    "Qualifier Operator": "=",
    "IC50 at 48 h [µM]": 5.75
  },
  {
    "Cpd Smiles": "O=C(N[C@@H](COc1ccc2[nH]c(=O)[nH]c2c1)c1ccccc1)c1cccn(Cc2ccc(F)c(F)c2)c1=O",
    "Qualifier Operator": "=",
    "IC50 at 48 h [µM]": 40.4
  }
]
